These measurements were taken from patent EP4786492A1.

Parameter MFI: see the listing below.
testedOn: mouse DLL3 on CHO-K1-mDLL3 cells (mouse) (UniProt O88516)
Sequence (O88516 other isoform, or with tags, fused parts or gaps limits assumed): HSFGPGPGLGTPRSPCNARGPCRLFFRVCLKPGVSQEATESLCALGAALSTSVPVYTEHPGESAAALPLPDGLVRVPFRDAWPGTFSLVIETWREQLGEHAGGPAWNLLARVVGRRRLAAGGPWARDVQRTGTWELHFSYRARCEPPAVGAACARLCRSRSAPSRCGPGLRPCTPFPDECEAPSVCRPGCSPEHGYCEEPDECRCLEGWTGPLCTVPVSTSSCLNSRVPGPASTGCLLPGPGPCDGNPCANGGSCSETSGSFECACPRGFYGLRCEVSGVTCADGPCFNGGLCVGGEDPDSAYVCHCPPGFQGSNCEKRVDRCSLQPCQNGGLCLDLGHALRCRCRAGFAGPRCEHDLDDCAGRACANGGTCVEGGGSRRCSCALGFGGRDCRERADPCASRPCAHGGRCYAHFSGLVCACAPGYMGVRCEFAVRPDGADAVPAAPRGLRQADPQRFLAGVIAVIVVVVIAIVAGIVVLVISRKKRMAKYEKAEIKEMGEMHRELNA
runDescription: FACS, CHO-K1-mDLL3 cells, 0.00128 nM antibody
Reply with the number and its unit after it.

[[record]]
binder = "Hab015VL5VH5a-hFc (scFv, part only; not given: scFv linker and human IgG1 Fc, V domains shown, not shown: another chain or arm of the molecule; a dimerising Fc or GST; small tags and cut ends) VL: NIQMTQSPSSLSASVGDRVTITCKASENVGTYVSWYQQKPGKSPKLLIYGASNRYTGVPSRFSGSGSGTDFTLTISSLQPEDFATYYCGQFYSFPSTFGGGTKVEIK VH: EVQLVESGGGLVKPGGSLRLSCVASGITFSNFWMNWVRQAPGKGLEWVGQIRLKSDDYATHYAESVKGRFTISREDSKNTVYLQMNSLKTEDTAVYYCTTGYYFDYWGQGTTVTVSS"
experimentalresult = "122 MFI"

[[record]]
binder = "Hab015VL5VH1b-hFc (scFv, part only; not given: VL-VH linker and human IgG1 Fc, V domains shown, not shown: another chain or arm of the molecule; a dimerising Fc or GST; small tags and cut ends) VL: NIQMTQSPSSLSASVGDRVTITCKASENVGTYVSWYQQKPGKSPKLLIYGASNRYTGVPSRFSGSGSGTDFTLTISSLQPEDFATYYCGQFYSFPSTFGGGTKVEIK VH: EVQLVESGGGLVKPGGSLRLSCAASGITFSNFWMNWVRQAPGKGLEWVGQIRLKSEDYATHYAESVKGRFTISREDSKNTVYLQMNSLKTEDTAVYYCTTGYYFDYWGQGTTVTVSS"
experimentalresult = "122 MFI"


Consider the additional binder presented here.
Exercise: Could you share which MFI value was measured for Hab015VL4VH1b-hFc (scFv, part only; not given: VL-VH linker and human IgG1 Fc, V domains shown, not shown: another chain or arm of the molecule; a dimerising Fc or GST; small tags and cut ends) VL: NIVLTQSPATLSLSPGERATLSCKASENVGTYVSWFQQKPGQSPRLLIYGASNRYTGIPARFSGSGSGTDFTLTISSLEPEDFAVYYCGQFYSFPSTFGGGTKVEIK VH: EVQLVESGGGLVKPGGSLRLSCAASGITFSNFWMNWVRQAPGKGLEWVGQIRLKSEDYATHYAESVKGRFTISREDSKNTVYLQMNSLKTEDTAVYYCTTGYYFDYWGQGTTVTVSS ?
Solution: 114 MFI
